experiment: chemical genetic growth profiling, strain panel (AID 1159580);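 note: tested at 20 µM; growth read once vehicle control cultures reached saturation at 30 °C; 1 = growth at the plate median or of vehicle wells; lower values mean less growth of the strain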; conditions: S. cerevisiae deletion strains, growth OD, locus YLR133W, strain CKI1, stronger effect = lower value
Out of some 5,500 compounds screened, about 2,000 (36%) were called active. Roughly 18% stayed inconclusive and do not appear here. The list shows a part of the results.
// assign criterion met if normalized growth falls strictly below 0.9, else criterion not met (ties count as criterion not met)

Please review the entries below; each comes with its answer.
O=S(=O)(Nc1ccc(-n2nc(C(F)(F)F)cc2-c2cccs2)cc1)c1ccc(F)cc1 ... criterion not met
Cc1nc(C(F)(F)F)ccc1-c1nnc(SC(=O)c2ccc(Cl)cc2)o1 ... criterion met
CCCCc1ccc(N=CNO)c(C)c1 ... criterion met
CCC1(c2ccccc2)OC(c2cc(Cl)cc(Cl)c2O)Nc2ccccc21 (centres undefined) ... criterion met
N#CC(C#N)=NNc1ccc(-n2ccc(C(F)(F)F)n2)cc1 ... criterion met
N#CC(C#N)=NNc1cc(C(F)(F)F)ccc1OCC(F)(F)F ... criterion met
Cc1c(C(=O)NCCNc2ccc(C(F)(F)F)cc2[N+](=O)[O-])cnn1-c1ccc(F)cc1 ... criterion not met
CSc1sc(-c2ccn[nH]2)c(-c2ccccc2)c1C#N ... criterion not met
CN(C)c1nc(=S)ss1 ... criterion met
Nc1ccc(N2CCN(c3ccc(C(F)(F)F)cn3)CC2)nc1 ... criterion not met

**Query** Strictly below 0.9: is that where normalized growth of COc1cc(OC)cc(/C(N)=N\O)c1 sits?
**Result** criterion not met

**Query** Strictly below 0.9: is that where normalized growth of O=S(=O)(Nc1cc(-c2cccs2)nn1-c1ccc(I)cc1)c1cccc(F)c1 sits?
**Result** criterion not met

**Query** Strictly below 0.9: is that where normalized growth of CCOC(=O)C1C(c2ccc(Br)cc2)C(C(=O)OCC)C(O)(C(F)(F)F)NC1(O)C(F)(F)F (centres undefined) sits?
**Result** criterion not met

**Query** Strictly below 0.9: is that where normalized growth of N#C/C(=N/Nc1ccc(Cl)cc1)C(=O)C1CC1 sits?
**Result** criterion met

**Query** Strictly below 0.9: is that where normalized growth of N#C/C(=C\c1ccc(C(F)(F)F)cc1)c1ccc(O)cc1 sits?
**Result** criterion met

###

assay: chemical genetic growth profiling, strain panel (AID 1159580);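 note: tested at 20 µM; growth read once vehicle control cultures reached saturation at 30 °C; 1 = growth at the plate median or of vehicle wells; lower values mean less growth of the strain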; conditions: S. cerevisiae deletion strains, growth OD, locus YJR066W, strain TOR1, stronger effect = lower value
Screen size: about 5,500 compounds; about 2,000 (36%) were called active. Roughly 18% stayed inconclusive and do not appear here. The list shows a part of the results.
value_type: normalized growth
Format: numeric value only, no unit, no commentary.

In the examples that follow, each entry is paired with its recorded normalized growth.
COc1c2occc2cc2ccc(=O)oc12 ... 0.969
N#CC(C#N)=NNc1cc(C(F)(F)F)ccc1OCC(F)(F)F ... 0.458
O=C(Nc1ccc(OC(F)(F)F)cc1)Nc1cncc(C(F)(F)F)c1 ... 0.942
COc1cc2ccc(=O)oc2c2ccoc12 ... 0.965

**Query** Tell us which normalized growth value is on record for N#C/C(=N/Nc1ccc(Cl)cc1)C(N)=S
**Result** 0.244

**Query** Tell us which normalized growth value is on record for Cn1cnc([N+](=O)[O-])c1Sc1ncnc2nc[nH]c12
**Result** 0.998

**Query** Tell us which normalized growth value is on record for N#C/C(=N/Nc1ccc(C(F)(F)F)cc1)C(=O)C1CC1
**Result** 0.997

**Query** Tell us which normalized growth value is on record for O=S(=O)(Nc1cc(-c2cccs2)nn1-c1ccc(I)cc1)c1cccc(F)c1
**Result** 0.906

**Query** Tell us which normalized growth value is on record for O=C(N/N=C\c1cc(Cl)cc(Cl)c1O)c1ccccc1Oc1ccccc1
**Result** 0.933

**Query** Tell us which normalized growth value is on record for CNC(=O)CSP(=S)(OC)OC
**Result** 0.992

**Query** Tell us which normalized growth value is on record for N#C/C(=C\C=C\c1ccccc1)c1nc2ccccc2[nH]1
**Result** 0.791

**Query** Tell us which normalized growth value is on record for CC(=O)N[C@@H]1[C@@H](O)[C@H](O)[C@@H](CO)O[C@H]1O
**Result** 0.917

**Query** Tell us which normalized growth value is on record for CCNc1nc(Cl)nc(NC(C)C)n1
**Result** 0.959

**Query** Tell us which normalized growth value is on record for NCCS
**Result** 0.998

**Query** Tell us which normalized growth value is on record for Cn1c(=O)[nH]c(=O)c2[nH]cnc21
**Result** 0.911

**Query** Tell us which normalized growth value is on record for CSc1sc(-c2ccn[nH]2)c(-c2ccccc2)c1C#N
**Result** 1.04

**Query** Tell us which normalized growth value is on record for N#C/C(=N/Nc1ccc(Cl)cc1)C(=O)C1CC1
**Result** 0.643

**Query** Tell us which normalized growth value is on record for C[C@]12CCC3C(CC[C@H]4CC(=O)CC[C@]34C)C1CCC2=O (stereo partly drawn)
**Result** 0.881

**Query** Tell us which normalized growth value is on record for O=S(=O)(Nc1ccc(-n2nc(C(F)(F)F)cc2-c2cccs2)cc1)c1ccc(F)cc1
**Result** 1.04

**Query** Tell us which normalized growth value is on record for Cc1c(C(=O)NCCNc2ccc(C(F)(F)F)cc2[N+](=O)[O-])cnn1-c1ccc(F)cc1
**Result** 0.999

**Query** Tell us which normalized growth value is on record for CCCC(=O)Nc1ncnc2c1ncn2C1O[C@@H]2COP(=O)(O)O[C@H]2[C@H]1OC(=O)CCC (stereo partly drawn)
**Result** 0.97

**Query** Tell us which normalized growth value is on record for CC(C)(C)c1cc(C(=O)/C(C#N)=N\Nc2ccc(Cl)cc2)no1
**Result** 0.169

**Query** Tell us which normalized growth value is on record for COc1ccc(-c2cc(NS(=O)(=O)c3cccc(F)c3)n(-c3ccc(Cl)c(Cl)c3)n2)cc1
**Result** 0.87
